Source: ChEMBL document CHEMBL1135709

- System: OVCAR-4
- procedure.details: Percent growth of NCI cell line, ovarian: OVCAR-4 exposed for 48 hr at 10e-4 concentration
- Assay type: functional, Homo sapiens
test.readout: Growth (%)
Report only the number, with the unit % understood.

Q: Quick one: Growth for `COc1ccc2c(c1)c1nn(CCN(C)C)c3ccc4c(=O)n(CCN(C)C)c(=O)n2c4c13` ?
Ans: -82

Q: Quick one: Growth for `CN(C)CCn1c(=O)c2ccc3c4c(nn3CCN(C)C)c3ccccc3n(c1=O)c24` ?
Ans: -56

Q: Quick one: Growth for `CN(C)CCn1c(=O)c2ccc3c4c(nn3CCN(C)C)c3cc(O)ccc3n(c1=O)c24` ?
Ans: -60

Q: Quick one: Growth for `CN(C)CCn1c(=O)c2ccc3c4c(nn3CCN(C)C)c3cc([N+](=O)[O-])ccc3n(c1=O)c24` ?
Ans: -96

Q: Quick one: Growth for `COc1ccc2c(c1)c1nn(CCN3CCCCC3)c3ccc4c(=O)n(CCN(C)C)c(=O)n2c4c13` ?
Ans: -89

Q: Quick one: Growth for `CN(C)CCn1c(=O)c2ccc3c4c(nn3CCN(C)C)c3cc(N)ccc3n(c1=O)c24` ?
Ans: -51

* * *

- Test system: HCT-15
- procedure.details: Percent growth of NCI cell line, colon: HCT-15 exposed for 48 hr at 10e-6 concentration
- Format: functional, Homo sapiens
Provide the recorded Growth for the entries that follow.
Report only the number, with the unit % understood.

Q: Quick one: Growth for `CN(C)CCn1c(=O)c2ccc3c4c(nn3CCN(C)C)c3cc(O)ccc3n(c1=O)c24` ?
Ans: 21

Q: Quick one: Growth for `CN(C)CCn1c(=O)c2ccc3c4c(nn3CCN(C)C)c3cc([N+](=O)[O-])ccc3n(c1=O)c24` ?
Ans: -4

Q: Quick one: Growth for `CN(C)CCn1c(=O)c2ccc3c4c(nn3CCN(C)C)c3ccccc3n(c1=O)c24` ?
Ans: -29

Q: Quick one: Growth for `CN(C)CCn1c(=O)c2ccc3c4c(nn3CCN(C)C)c3cc(N)ccc3n(c1=O)c24` ?
Ans: -25

Q: Quick one: Growth for `COc1ccc2c(c1)c1nn(CCN3CCCCC3)c3ccc4c(=O)n(CCN(C)C)c(=O)n2c4c13` ?
Ans: -34

Q: Quick one: Growth for `COc1ccc2c(c1)c1nn(CCN(C)C)c3ccc4c(=O)n(CCN(C)C)c(=O)n2c4c13` ?
Ans: -31

* * *

- Test system: Calf thymus DNA
- procedure.details: CT-DNA binding required to produce a 50% drop in fluorescence of DNA-bound ethidium.
- Type: nucleic-acid assay
- condition.notes: Bos taurus
Provide the recorded C50 for the entries that follow.
Report only the number, with the unit µM understood.

Q: Quick one: C50 for `CN(C)CCn1c(=O)c2ccc3c4c(nn3CCN3CCCCC3)c3ccccc3n(c1=O)c24` ?
Ans: 0.05

Q: Quick one: C50 for `CN(C)CCn1c(=O)c2ccc3c4c(nn3CCN3CCCCC3)c3cc([N+](=O)[O-])ccc3n(c1=O)c24` ?
Ans: 0.01

Q: Quick one: C50 for `CN(C)CCCn1c(=O)c2ccc3c4c(nn3CCCN(C)C)c3ccccc3n(c1=O)c24` ?
Ans: 0.56

Q: Quick one: C50 for `CN(C)CCn1c(=O)c2ccc3c4c(nn3CCN(C)C)c3cc(O)ccc3n(c1=O)c24` ?
Ans: 0.056

Q: Quick one: C50 for `COc1ccc2c(c1)c1nn(CCN(C)C)c3ccc4c(=O)n(CCN(C)C)c(=O)n2c4c13` ?
Ans: 0.052

Q: Quick one: C50 for `CN(C)CCCn1c(=O)c2ccc3c4c(nn3CCN(C)C)c3ccccc3n(c1=O)c24` ?
Ans: 0.12

Q: Quick one: C50 for `CN(C)CCn1c(=O)c2ccc3c4c(nn3CCN(C)C)c3cc(N)ccc3n(c1=O)c24` ?
Ans: 0.0009

Q: Quick one: C50 for `O=C1c2c(O)ccc(O)c2C(=O)c2c(NCCNCCO)ccc(NCCNCCO)c21` ?
Ans: 0.037

Q: Quick one: C50 for `COc1ccc2c(c1)c1nn(CCN3CCCC3)c3ccc4c(=O)n(CCN(C)C)c(=O)n2c4c13` ?
Ans: 0.065

Q: Quick one: C50 for `COc1ccc2c(c1)c1nn(CCN3CCCCC3)c3ccc4c(=O)n(CCN(C)C)c(=O)n2c4c13` ?
Ans: 0.0099
